system_tested: human RXFP1 (Homo sapiens)
Sequence (Q9HBX9 whole entry): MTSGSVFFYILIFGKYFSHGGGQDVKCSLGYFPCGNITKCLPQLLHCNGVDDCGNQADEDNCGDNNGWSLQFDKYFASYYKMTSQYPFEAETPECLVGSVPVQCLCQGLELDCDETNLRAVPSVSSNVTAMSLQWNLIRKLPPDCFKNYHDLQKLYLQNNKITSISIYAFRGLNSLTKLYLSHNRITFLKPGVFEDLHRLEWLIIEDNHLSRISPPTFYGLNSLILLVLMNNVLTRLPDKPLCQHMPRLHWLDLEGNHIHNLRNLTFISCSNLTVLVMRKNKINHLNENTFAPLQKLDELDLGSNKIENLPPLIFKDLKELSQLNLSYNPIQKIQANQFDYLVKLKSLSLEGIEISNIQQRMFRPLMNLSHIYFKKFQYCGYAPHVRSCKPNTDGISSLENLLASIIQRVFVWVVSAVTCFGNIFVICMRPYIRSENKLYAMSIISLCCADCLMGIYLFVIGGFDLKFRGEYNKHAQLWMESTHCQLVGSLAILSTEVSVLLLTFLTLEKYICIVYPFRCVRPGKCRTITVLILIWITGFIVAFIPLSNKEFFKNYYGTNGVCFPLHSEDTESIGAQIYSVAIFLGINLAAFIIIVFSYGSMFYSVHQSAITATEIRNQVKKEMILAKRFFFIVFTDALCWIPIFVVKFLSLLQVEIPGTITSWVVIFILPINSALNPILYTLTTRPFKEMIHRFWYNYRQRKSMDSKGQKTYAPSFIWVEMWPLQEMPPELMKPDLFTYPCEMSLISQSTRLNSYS
procedure_details: hRXFP1 HEK293 cAMP assay (HTRF)
condition_parameters: HEK293 cells stably expressing human RXFP1; 30 min at rt; intracellular cAMP by HTRF
Output True for records whose EC50 is lower than 500 nM, False for records at or above 500 nM.

COc1ccc(C2=NOC3CC(NC(=O)CO)CC23)cc1C(=O)Nc1c(C(=O)Nc2ccc(F)c(C(F)(F)F)c2)sc2cc(C(F)(F)F)ccc12 (single isomer, unassigned) [Example 263]    True
COc1ccc(-c2cc([C@H](OC(=O)NC3CCC3)C(F)(F)F)ccc2F)cc1C(=O)Nc1c(C(=O)Nc2ccc(F)c(C(F)(F)F)c2)sc2cc(C(F)(F)F)ccc12    True
COc1ccc(C(=O)N2CC(C)(C)C2)cc1C(=O)Nc1c(C(=O)Nc2ccc(F)c(C(F)(F)F)c2)sc2cc(C(F)(F)F)ccc12    False

Asked: Is it true that EC50 reported for COc1ccc(C2CC2C(=O)NC2CCOCC2)cc1C(=O)Nc1c(C(=O)Nc2ccc(F)c(C(F)(F)F)c2)sc2cc(C(F)(F)F)ccc12 (single isomer, unassigned) [Example 158] is less than 500 nM?
Given back: True
